Molecular target: T1, recombinant mouse TfR-1, His-tagged (Sino Biological 50741-M07H) (mouse, UniProt Q62351 89-763)
T1 construct: bought; His-tagged; also called mTfR1; mTfR-1
T1 sequence (Q62351 89-763 limits assumed, stated change not applied): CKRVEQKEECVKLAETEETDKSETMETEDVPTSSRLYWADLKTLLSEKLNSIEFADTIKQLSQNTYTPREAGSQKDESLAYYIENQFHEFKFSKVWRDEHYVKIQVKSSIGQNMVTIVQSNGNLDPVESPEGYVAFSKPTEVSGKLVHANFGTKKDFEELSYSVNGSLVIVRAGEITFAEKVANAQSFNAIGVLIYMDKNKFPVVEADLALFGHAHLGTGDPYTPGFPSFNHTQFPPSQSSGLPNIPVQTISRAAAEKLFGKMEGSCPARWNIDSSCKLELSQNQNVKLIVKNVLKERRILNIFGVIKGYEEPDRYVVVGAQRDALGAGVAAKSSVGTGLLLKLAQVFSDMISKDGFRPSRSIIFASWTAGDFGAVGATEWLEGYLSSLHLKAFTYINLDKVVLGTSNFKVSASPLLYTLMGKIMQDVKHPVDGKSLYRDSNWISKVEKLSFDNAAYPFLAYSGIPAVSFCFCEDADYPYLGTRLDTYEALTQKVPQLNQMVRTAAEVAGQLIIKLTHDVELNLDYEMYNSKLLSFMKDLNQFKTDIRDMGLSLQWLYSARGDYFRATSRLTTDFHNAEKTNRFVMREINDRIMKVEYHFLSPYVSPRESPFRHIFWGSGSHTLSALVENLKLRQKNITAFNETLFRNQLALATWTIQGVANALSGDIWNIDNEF
Experiment: SPR, His-captured TfR1
Result Type: pKd
// pKd: -log10(molar conc.)

Input: Tell me pKd reported for Clone H variant 10 VNAR-hFc (Fc fusion, not shown: a dimerising Fc or GST, also called clone H var; 10) ARVDQTPQTITKETGESLTINCVLRDSNCELSSTYWYRKKSGSTNEESISKGGRYVETVNSGSKSFSLRINDLVVEDSGTYRCNVQQFPSWFNGRYWCDVYGGGTAVTVNA
Output: 8.26

Input: Tell me pKd reported for Clone H variant 5 VNAR-hFc (Fc fusion, not shown: a dimerising Fc or GST) ARVDQTPQTITKETGESLTINCVLRDSNCELSSTYWYRKKSGSTNEESISKGGRYVETVNSGSKSFSLRINDLVVEDSGTYRCNVQQFPNRWNGRYWCDVYGGGTAVTVNA
Output: 7.96
